Tested on: HT1197
Assay: cells
Assay type: functional, cell-based, Homo sapiens, HT-1197
Conditions: Homo sapiens, HT1197
Description: SANGER: Inhibition of human HT-1197 cell growth in a cell viability assay.
pIC50: −log10 of the molar value.
# pIC50 per record follows

I am curious: what pIC50 value has been reported for Cc1cn(-c2cc(NC(=O)c3ccc(C)c(Nc4nccc(-c5cccnc5)n4)c3)cc(C(F)(F)F)c2)cn1 [NILOTINIB] ? < 5.70

Please report the recorded pIC50 for Nc1cccc2c1CN(C1CCC(=O)NC1=O)C2=O (stereo not drawn) [LENALIDOMIDE] . < 5.30

Reported pIC50 for Nc1ccn([C@@H]2O[C@H](CO)[C@@H](O)C2(F)F)c(=O)n1 [GEMCITABINE] : what is it? < 5.99

###

System: SNU-423
Assay: cells
Assay type: functional, cell-based, Homo sapiens
Details: snu-423
Description: SANGER: Inhibition of human SNU-423 cell growth in a cell viability assay.
Endpoint label: pIC50
pIC50 field: float, defined as -log10 of concentration (mol/L).

Item "BLEOMYCIN" has what recorded pIC50? 6.06

###

Measured pIC50, listed per entry.
Test system: BV-173
Experiment: cells
Format: functional, cell-based, Homo sapiens
Settings: Homo sapiens, BV-173
Description: SANGER: Inhibition of human BV-173 cell growth in a cell viability assay.
By convention, pIC50 is the negative base-10 log of a molar concentration.

Example entries begin here.
• CO[C@H]1C[C@@H]2CC[C@@H](C)[C@@](O)(O2)C(=O)C(=O)N2CCCC[C@H]2C(=O)O[C@H]([C@H](C)C[C@@H]2CC[C@@H](OC(=O)C(C)(CO)CO)[C@H](OC)C2)CC(=O)[C@H](C)/C=C(\C)[C@@H](O)[C@@H](OC)C(=O)[C@H](C)C[C@H](C)/C=C/C=C/C=C/1C = 7.36
• COc1cc(-c2nn([C@H]3CC[C@H](N4CCN(C(C)=O)CC4)CC3)c3ncnc(N)c23)ccc1NC(=O)c1cc2ccccc2n1C = 6.46

Then there is this compound:
Entry "OCCCNc1cc(-c2ccnc(Nc3cccc(Cl)c3)n2)ccn1" has what pIC50? 6.84

###

Below, each entry is listed alongside its reported IC50.
Tested on: EW-3;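 note: cell viability assay read-out, IC50 reflects inhibition of growth of the EW-3 cells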
Assay: cells
Format: functional, cell-based, Homo sapiens
Settings: Homo sapiens, EW-3
Description: SANGER: Inhibition of human EW-3 cell growth in a cell viability assay.
Please reply with the bare figure in µM and do not write the unit itself.

Below, each entry is followed by its recorded IC50 result.
- CN(C)C(=N)NC(=N)N: 12200
- Cn1cnc2c(F)c(Nc3ccc(Br)cc3Cl)c(C(=O)NOCCO)cc21: 2.93

For the compound "N[C@@H](CSC(c1ccccc1)(c1ccccc1)c1ccccc1)C(=O)O" , what IC50 is on record? 4.92

###

Test system: RD
Assay: cells
Type: functional, cell-based, Homo sapiens
Details: Homo sapiens, RD
Description: SANGER: Inhibition of human RD cell growth in a cell viability assay.
Counter-ions that a name gives are not always drawn.
Endpoint label: IC50

Check out these entries, answers already filled in.
• CC1(C)CNc2cc(NC(=O)c3cccnc3NCc3ccncc3)ccc21 = > 2000 nM
• COC1=CC(c2cc3ccccc3[nH]2)=N/C1=C\c1[nH]c(C)cc1C [OBATOCLAX MESYLATE] = 140 nM
• CC(C)CCN1c2nc(Nc3cc(F)c(O)c(F)c3)ncc2N(C)C(=O)C1C (configuration not stated) = 3430 nM
• N#Cc1c(O)c2c(-c3ccc(-c4ccccc4O)cc3)csc2[nH]c1=O = > 1020 nM
• CCN(CC)CCCCNc1ncc2cc(-c3cc(OC)cc(OC)c3)c(NC(=O)NC(C)(C)C)nc2n1 = > 2000 nM
• CCC/C=C/C=C/C(=O)O[C@H]1/C(=C/C(=O)OC)C[C@H]2C[C@H]([C@@H](C)O)OC(=O)C[C@H](O)C[C@@H]3C[C@H](OC(C)=O)C(C)(C)[C@](O)(C[C@@H]4C/C(=C/C(=O)OC)C[C@H](/C=C/C(C)(C)[C@]1(O)O2)O4)O3 = > 8 nM

Now for the compound whose IC50 we want.
Requested read-out: IC50. Entry: Nc1cccc2c1CN(C1CCC(=O)NC1=O)C2=O (configuration not stated) [LENALIDOMIDE] > 5000 nM
